- ASSAYED_SYSTEM: T1, human TREM2 (human, UniProt Q9NZC2 19-174, limits assumed)
- T1 construct: also called triggering receptor expressed on myeloid cells 2
- T1 sequence: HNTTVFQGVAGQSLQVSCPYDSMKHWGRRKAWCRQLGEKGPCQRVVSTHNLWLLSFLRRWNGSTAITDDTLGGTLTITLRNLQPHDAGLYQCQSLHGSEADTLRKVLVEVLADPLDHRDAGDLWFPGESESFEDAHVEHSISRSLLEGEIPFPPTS
- PROCEDURE_SUMMARY: 2nd screen 2 nM
This section presents binders with their documented Binding Signal (fold over 6E7 Parental antibody) values.
Numbers only here, please. The scale is fold.

Example results:
| BINDER | UNIT_OF_MEASURE | DATA_VALUE |
| --- | --- | --- |
| V75 (antibody, V domains shown) VH: EVQLVQSGAEVKKPGESLKISCKGSGYSFTSYWIAWVRQMPGKGLEWMGIIYPGDSDTRYSPSFQGQVTISADKSISTAYLQWSSLKASDTAMYFCARGRTFYYDSSDYFDYWGQGTLVTVSS VL: DIQMTQSPSSVSASVGDRVTITCRASQGISSWLAWYQQKPGKAPKLLIYAASSLQAGVPSRFSGSGSGTDFTLTISSLQPEDFATYFCQQADSYPRTFGQGTKLEIK | fold | 3.74 |
| V13 (antibody, V domains shown) VH: EVQLVQSGAEVKKPGESLKISCKGSGYSFGSYWIAWVRQMPGKGLEWMGIIYPGDSDTRYSASFQGQVTISADKSISTAYLQWSSLKASDTAMYFCARGRTFYYDSSDYFDYWGQGTLVTVSS VL: DIQMTQSPSSVSASVGDRVTITCRASQGISSWLAWYQQKPGKAPKLLIYAASSLQGGVPSRFSGSGSGTDFTLTISSLQPEDFATYFCQQADSMPRTFGQGTKLEIK | fold | 1.15 |

Kindly consider the entry below.
Prompt line: Any idea what Binding Signal (fold over 6E7 Parental antibody) was measured for V62 (antibody, V domains shown) VH: EVQLVQSGAEVKKPGESLKISCKGSGYSFGSYWIAWVRQMPGKGLEWMGIIYPGDSDTRYAPSFQGQVTISADKSISTAYLQWSSLKASDTAMYFCARQRTFYYDSSGYFDYWGQGTLVTVSS VL: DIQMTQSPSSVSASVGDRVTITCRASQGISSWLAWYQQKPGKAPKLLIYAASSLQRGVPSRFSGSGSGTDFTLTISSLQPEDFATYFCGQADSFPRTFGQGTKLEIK ?
Response line: 1.87
